// data source = patent US20220323406A1

Test system: ENR+CD organoids (ISC to Paneth cell differentiation)
ASSAY EXPLANATION: Primary screen: basal (non-stimulated) lysozyme secretion LYZ.NS, 2.5-D 384-well ENR+CD organoid differentiation
Type: cell-based, mouse
CONDITION DETAILS: primary screen; dose 0.08 uM; FC vs plate median
Where a name gives a salt, the structure may show the parent alone.
Note to self: Dose.FC.LYZ.NS under 0.1 log2 fold change means Yes, ties and anything higher get No.

[Q] Please let me know if Cc1ccc(S(=O)(=O)c2ccc([N+](=O)[O-])o2)cc1 shows Dose.FC.LYZ.NS below 0.1 log2 fold change.
[A] Yes

[Q] Please let me know if O=c1cc(N2CCOCC2)oc2c1ccc1ccccc12 shows Dose.FC.LYZ.NS below 0.1 log2 fold change.
[A] Yes

[Q] Please let me know if C[C@](O)(COc1ccc(C#N)cc1)C(=O)Nc1ccc(C#N)c(C(F)(F)F)c1 shows Dose.FC.LYZ.NS below 0.1 log2 fold change.
[A] Yes

[Q] Please let me know if COc1ccc2cc([C@H](C)C(=O)O)ccc2c1 shows Dose.FC.LYZ.NS below 0.1 log2 fold change.
[A] No

[Q] Please let me know if COc1ccc(CNCc2cccc3ccccc23)cc1.Cl [ML133 HCl] shows Dose.FC.LYZ.NS below 0.1 log2 fold change.
[A] Yes

[Q] Please let me know if Nc1cccc2c1C(=O)N(C1CCC(=O)NC1=O)C2=O (stereo not shown) [Pomalidomide] shows Dose.FC.LYZ.NS below 0.1 log2 fold change.
[A] Yes

[Q] Please let me know if Nc1ncnc2c1c(-c1cccc(OCc3ccccc3)c1)cn2C1CC(CN2CCCC2)C1 (stereo not shown) shows Dose.FC.LYZ.NS below 0.1 log2 fold change.
[A] No

[Q] Please let me know if C[C@]1(O)C[C@@H](c2nc(-c3ccc4ccc(-c5ccccc5)nc4c3)c3c(N)nccn32)C1 shows Dose.FC.LYZ.NS below 0.1 log2 fold change.
[A] Yes

[Q] Please let me know if CS(=O)(=O)c1cccc(CNc2nc(Nc3ccc4c(c3)CCC(=O)N4)ncc2C(F)(F)F)c1 shows Dose.FC.LYZ.NS below 0.1 log2 fold change.
[A] Yes

[Q] Please let me know if O=C1CC[C@@]2(O)[C@H]3Cc4ccc(O)c5c4[C@@]2(CCN3CC2CC2)[C@H]1O5 [Naltrexone HCl] shows Dose.FC.LYZ.NS below 0.1 log2 fold change.
[A] Yes

[Q] Please let me know if Cc1[nH]c(/C=C2\C(=O)Nc3ccc(S(=O)(=O)Cc4c(Cl)cccc4Cl)cc32)c(C)c1C(=O)N1CCC[C@@H]1CN1CCCC1 shows Dose.FC.LYZ.NS below 0.1 log2 fold change.
[A] No

[Q] Please let me know if COc1ccc(-c2cnc3c(-c4cccc5ncccc45)cnn3c2)cc1 shows Dose.FC.LYZ.NS below 0.1 log2 fold change.
[A] No

[Q] Please let me know if Cc1sc2c(c1C)C(c1ccc(Cl)cc1)=N[C@@H](CC(=O)Nc1ccc(O)cc1)c1nnc(C)n1-2 shows Dose.FC.LYZ.NS below 0.1 log2 fold change.
[A] Yes

[Q] Please let me know if C[C@@H]1O[C@@H](O[C@H]2C[C@@H](O)[C@]3(CO)[C@H]4[C@H](O)C[C@]5(C)[C@@H](C6=CC(=O)OC6)CC[C@]5(O)[C@@H]4CC[C@]3(O)C2)[C@H](O)[C@H](O)[C@H]1O shows Dose.FC.LYZ.NS below 0.1 log2 fold change.
[A] Yes
